Origin of values: patent US8981111B2

- test: log P (HPLC/MS data of the preparation examples)
- statedConditions: HPLC (LC-MS) method [b]: pH 2.7, 0.1% formic acid in water and acetonitrile, linear gradient 10% to 95% acetonitrile; EEC directive 79/831 Annex V.A8
Would you kindly list log p for each of these compounds?

For `CCCCCC(=O)Nc1nc(CON=C(c2cccs2)c2cncn2C)cs1` the compound record lists log p as 1.93^[b]

Entry `CCCCCC(=O)Nc1nc(CON=C(c2ncc(C(F)(F)F)cc2Cl)c2ncnn2C)cs1` , log p reported as 3.6^[b]

Lab book: log p of `CCCCCCCCCC(=O)Nc1nc(CON=C(c2cccs2)c2cncn2C)cs1` noted as 2.86^[b]

So for `CC(C)CC(=O)Nc1cccc(CON=C(c2ccsc2)c2cncn2C)n1` , the logged log p turned out to be 1.7^[b]

So, `Cn1cncc1C(=NOCc1cccc(NC(=O)COc2ccccc2)n1)c1cccs1` ? Its log p was 1.94^[b]

###

- test: log P (HPLC/MS data of the preparation examples)
- statedConditions: LC-MS, method [b]: pH 2.7 with 0.1% formic acid in water and acetonitrile, linear gradient 10% to 95% acetonitrile
Please go through the items and note down their log p.

Just so you know, measured log p for `CCCOC(=O)Nc1cccc(CON=C(c2ccccc2)c2nc(C)cnc2C)n1` came out at 3.81^[b]

`Cn1ncnc1C(=NOCc1cccc(NC(=O)CCc2ccccc2C(F)(F)F)n1)c1ccccc1` has a reported log p of 3.87^[b]

For reference, reported log p for `CCCCSC(=O)Nc1cccc(CON=C(c2cccc(F)c2)c2nccn2C)n1` stands at 2.88^[b]

The reported log p of the molecule `COc1ccc(CCC(=O)Nc2cccc(CON=C(c3ccccc3)c3ncnn3C)n2)cc1` was 3.25^[b]

The molecule listed as `CCCCCC(=O)Nc1nc(CON=C(c2cccs2)c2ncnn2C)cs1` has a reported log p of 3.23^[b]

Noted for `Cn1nncc1C(=NOCc1nccc(NC(=O)Cc2ccccc2)n1)c1ccccc1` : its log p reads 2.84^[b]

Entry `CC(C)CCC(=O)Nc1cccc(CON=C(c2ccccc2)c2nccn2C)n1` — recorded log p = 2.15^[b]

Entry `C#CCCCC(=O)Nc1cccc(CON=C(c2ccccc2)c2ncnn2C)n1` ; log p = 2.7^[b]

Query `Cn1nncc1C(=NOCc1cccc(NC(=O)Cc2ccccc2)n1)c1ccccc1` yields log p of 3.19^[b]

// sample `Cn1nncc1C(=NOCc1cccc(NC(=O)C2CC2)n1)c1ccccc1` , its log p was 2.55^[b]

Record `Cc1cc(C(F)(F)F)nn1CC(=O)Nc1cccc(CON=C(c2ccccc2)c2nccn2C)n1` , field log p: 2.61^[b]

Consider `CCCCCCCCCC(=O)Nc1ccnc(CON=C(c2ccccc2)c2cncn2C)n1` . Its measured log p is 2.98^[b]

The molecule `Cc1ccc(C(=NOCc2cccc(NC(=O)C3CC3)n2)c2ncnn2C)cc1` showed log p equal to 2.73^[b]

The reported value for `C#CCCOC(=O)Nc1cccc(CON=C(c2ccccc2)c2ncnn2C)n1` in terms of log p is 2.82^[b]

// log p lookup, molecule = Cn1ccnc1C(=NOCc1cccc(NC(=O)C2CCCCO2)n1)c1cccc(F)c1 (stereo not shown) , result: 2.17^[b]

Lab book: log p of `CCCCC#Cc1cccc(CON=C(c2ccccc2)c2nncn2C)n1` noted as 3.23^[b]

// field: log p; key: `Cn1ccnc1C(=NOCc1cccc(NC(=O)OCC(Cl)(Cl)Cl)n1)c1ccccc1` ; value = 2.45^[b]

Query `Cn1ccnc1C(=NOCc1cccc(NC(=O)CCc2ccc(Cl)s2)n1)c1ccccc1` yields log p of 2.49^[b]

Form: molecule = `Cn1ccnc1C(=NOCc1cccc(NC(=O)CSc2ccccc2)n1)c1ccccc1` ; log p = 2.63^[b]

Lab note: `CC(C)CCC(=O)Nc1cccc(CON=C(c2cccc(F)c2)c2nccn2C)n1` gave log p of 2.42^[b]

Recorded result, `Cn1ncnc1C(=NOCc1cccc(NC(=O)Cc2ccc(F)cc2)n1)c1ccccc1` , log p: 3.15^[b]

Input `CCCCCC(=O)Nc1cccc(CON=C(c2ccc(OC)c(Br)c2)c2ncc(C(F)(F)F)cc2Cl)n1` . Output log p: 5.44^[b]

Form: molecule = Cn1cncc1C(=NOCc1cccc(NC(=O)C(C)(C)C)n1)c1ccccc1 (single isomer, unassigned) [Example 123] ; log p = 2.1^[b]

Given item COC(C(=O)Nc1cccc(CON=C(c2ccccc2)c2nccn2C)n1)c1ccccc1 (stereo not shown) , the value recorded as its log p is 2.15^[b]

So, CCC(C)CC(=O)Nc1cccc(CON=C(c2cccc(F)c2)c2nccn2C)n1 (stereo not shown) ? Its log p was 2.77^[b]

Kindly note the recorded log p for `CC(C)CC(=O)Nc1ccnc(CON=C(c2ccccc2)c2nccn2C)n1` , which is 1.76^[b]

Please fill in: log p reported for `CCCCS(=O)(=O)Nc1cccc(CON=C(c2ccccc2)c2cnnn2C)n1` = 2.86^[b]

response.value for `Cn1ncnc1C(=NOCc1cccc(NC(=O)CCc2ccc(Cl)cc2)n1)c1ccccc1` (field: log p) = 3.72^[b]

Input `CCCC(=O)Nc1ccnc(CON=C(c2ccccc2)c2cncn2C)n1` . Output log p: 1.5^[b]

According to the records, this molecule `Cc1cc(C(F)(F)F)nn1CC(=O)Nc1cccc(CON=C(c2cccc(F)c2)c2nccn2C)n1` displays log p of 2.8^[b]

For reference, reported log p for `Cn1ncnc1C(=NOCc1nccc(NC(=O)Cc2ccccc2)n1)c1cccs1` stands at 2.64^[b]

// recorded log p for `CCCCCOC(=O)Nc1ccnc(CON=C(c2ccc(C)cc2)c2ncnn2C)n1` : 3.76^[b]

molecule `Cn1ccnc1C(=NOCc1cccc(NC(=O)CSc2ccccc2)n1)c1cccc(F)c1` , log p observed: 2.82^[b]

GET /value?item= `COc1ccc(C(=NOCc2cccc(NC(=O)Cc3ccccc3)n2)c2ncc(C(F)(F)F)cc2Cl)cc1Br` &field=log p returns 5.08^[b]

###

I'd appreciate it if you could supply log p values for the items below.
- test: log P (HPLC/MS data of the preparation examples)
- statedConditions: LC-MS, method [b]: pH 2.7 with 0.1% formic acid in water and acetonitrile, linear gradient 10% to 95% acetonitrile

log p for CCCCCOC(=O)Nc1ccnc(CON=C(c2ccccc2)c2cncn2C)n1 [Example 115] is 2.66^[b]

Reported log p ( Cn1nncc1C(=NOCc1cccc(NC(=O)C(C)(C)C)n1)c1ccccc1 [Example 66] ) = 3.11^[b]

The compound listed as C=CCOC(=O)Nc1ccnc(CON=C(c2ccccc2)c2nccn2C)n1 [Example 57] shows log p equal to 1.62^[b]

log p reported for this compound Cn1cncc1C(=NOCc1nccc(NC(=O)COc2ccccc2)n1)c1ccccc1 [Example 132] : 1.86^[b]

Entry Cn1ccnc1C(=NOCc1cccc(NC(=O)Cc2ccccc2Cl)n1)c1cccc(F)c1 [Example 291] — recorded log p = 2.8^[b]

# compound Cn1ccnc1C(=NOCc1cccc(N2C(=O)c3ccccc3C2=O)n1)c1ccccc1 [Example 2] ; its log p = 1.8^[b]

Just so you know, measured log p for Cn1ccnc1C(=NOCc1cccc(NC(=O)Cc2ccccc2)n1)c1ccccc1 [Example 32] came out at 2^[b]

The value of log p measured for the compound CC(C)C(=O)Nc1cccc(CON=C(c2ccccc2)c2cncn2C)n1 [Example 125] turned out to be 1.63^[b]

Looking up CCCCCC(=O)Nc1cccc(CON=C(c2ccccc2)c2cncn2C)n1 [Example 120] , I found its log p recorded as 2.11^[b]

###

Provide the reported log p of each item.
- test: log P (HPLC/MS data of the preparation examples)
- statedConditions: LC-MS, method [b]: pH 2.7 with 0.1% formic acid in water and acetonitrile, linear gradient 10% to 95% acetonitrile

Lab note: Cc1ccc(C(=NOCc2nccc(NC(=O)C(C)(C)C)n2)c2ncnn2C)cc1 [Example 39] gave log p of 3.02^[b]

Looking up Cn1cncc1C(=NOCc1cccc(N)n1)c1ccccc1 (single isomer, unassigned) [Example 98] , I found its log p recorded as 0.29^[b]

The reported log p of the molecule Cn1ccnc1C(=NOCc1cccc(N2C(=O)c3ccccc3C2=O)n1)c1cccs1 [Example 385] was 1.78^[b]

# molecule CC(C)CC(=O)Nc1nc(CON=C(c2ccccc2)c2cnnn2C)cs1 [Example 86] ; its log p = 3^[b]

Memo: Cc1cccc(C(=NOCc2cccc(N3C(=O)c4ccccc4C3=O)n2)c2ncnn2C)c1 [Example 5] , reported log p: 3.04^[b]

The reported value for Cn1ccnc1C(=NOCc1nccc(NC(=O)C(C)(C)C)n1)c1cccs1 [Example 390] in terms of log p is 1.56^[b]

So for C#CCCOC(=O)Nc1cccc(CON=C(c2cccc(F)c2)c2nccn2C)n1 [Example 336] , the logged log p turned out to be 1.98^[b]

log p for CCCCCCOC(=O)Nc1cccc(CON=C(c2ccccc2)c2ncnn2C)n1 [Example 88] is 4.36^[b]

In plain terms, CC(C)CCC(=O)Nc1cccc(CON=C(c2ccccc2)c2ncnn2C)n1 [Example 306] has a documented log p of 3.37^[b]

Please fill in: log p reported for COCCOCC(=O)Nc1cccc(CON=C(c2ccc(OC)c(Br)c2)c2ncc(C(F)(F)F)cc2Cl)n1 [Example 362] = 4.51^[b]

Value of log p reported for the molecule CCCCCOC(=O)Nc1ccnc(CON=C(c2ccccc2)c2nccn2C)n1 [Example 55] is 2.28^[b]

The molecule listed as CC(C)CC(=O)NCc1cccc(CON=C(c2ccccc2)c2ncnn2C)n1 [Example 136] has a reported log p of 2.23^[b]

For Cn1ccnc1C(=NOCc1cccc(NC(=O)CCc2ccc(Cl)s2)n1)c1cccc(F)c1 [Example 335] the molecule record lists log p as 2.77^[b]

Sure, the documented log p for CCCCCC(=O)Nc1cccc(CON=C(c2ccccc2)c2cnnn2C)n1 [Example 65] is 3.52^[b]

// recorded log p for CCCCCC(=O)Nc1ccnc(CON=C(c2cccs2)c2nccn2C)n1 [Example 388] : 1.93^[b]

Record summary for Cn1ncnc1C(=NOCc1cccc(NC(=O)Cc2ccccc2)n1)c1ccccc1 [Example 29] : reported log p = 3.06^[b]

Sample Cn1ccnc1C(=NOCc1csc(N)n1)c1ccccc1 [Example 133] ; log p observed: 0.75^[b]

The molecule listed as Cn1ncnc1C(=NOCc1cccc(NC(=O)CCc2ccc(C(F)(F)F)cc2)n1)c1ccccc1 [Example 302] shows log p equal to 3.9^[b]
